Assay: molar heat capacity at constant pressure
Settings: 180 K; 101.33 kPa; Crystal
measurement-label: molar heat capacity at constant pressure (J/K/mol)
Give the quantity in J/K/mol, number only.

Answered examples (5):
compound | result-units | numeric-value
CCCCCCCCCC(=O)OC [methyl decanoate] | J/K/mol | 209.01
CCCCCCCCCCC(=O)OC [methyl undecanoate] | J/K/mol | 226.5
CCCCCCCCCCCCCCCC(=O)OC [methyl hexadecanoate] | J/K/mol | 295.27
CCCCCCCCCCCCC(=O)OC [methyl tridecanoate] | J/K/mol | 254.1
CCCCCCCCCCCCCCCCCCCC(=O)OC [methyl eicosanoate] | J/K/mol | 353.31

I'd like to know its molar heat capacity at constant pressure. The compound in question is CCCCCCCCCCCCCCCCCCC(=O)OC [methyl nonadecanoate]
339.52

Let us now turn to CCCCCCCCCCCCCCCCCC(=O)OC [methyl octadecanoate]
327.18

Another compound to look at: CCCCCCCCCCCC(=O)OC [methyl dodecanoate]
237.26

Same thing, different compound: CCCCCCCCC(=O)OC [methyl nonanoate]
198.49

What do we get for CCCCCCCCCCCCCCCCC(=O)OC [methyl heptadecanoate] ?
313.76

Thanks! And CCCCCCCCCCCCCC(=O)OC [methyl tetradecanoate] ?
265.19

Please answer likewise for CCCCCCCCCCCCCCC(=O)OC [methyl pentadecanoate]
282.1

How about CCCCCCCC(=O)OC [methyl octanoate] ?
181.34

* * *

Assay: molar heat capacity at constant pressure
Conditions: 170 K; 101.33 kPa; Crystal
// NB: equality with 300 J/K/mol counts as not met; only molar heat capacity at constant pressure strictly below is met

compound | label-value
CCCCCCCCCCCC(=O)OC [methyl dodecanoate] | met
CCCCCCCCCCCCCCCCCCCC(=O)OC [methyl eicosanoate] | not met
CCCCCCCCCCCCCCCCCC(=O)OC [methyl octadecanoate] | not met
CCCCCCCCC(=O)OC [methyl nonanoate] | met
CCCCCCCCCCCCCCCC(=O)OC [methyl hexadecanoate] | met

Below 300 J/K/mol on molar heat capacity at constant pressure? Entry CCCCCCCCCCCCCCCCCCC(=O)OC [methyl nonadecanoate]
not met

Another compound to look at: CCCCCCCCCC(=O)OC [methyl decanoate]
met

How about this compound: CCCCCCCCCCCCC(=O)OC [methyl tridecanoate]
met

Next up: CCCCCCCCCCCCCC(=O)OC [methyl tetradecanoate]
met

Follow-up item: CCCCCCCC(=O)OC [methyl octanoate]
met

Please do the same for CCCCCCCCCCCCCCC(=O)OC [methyl pentadecanoate] as well.
met

Could you do the same for CCCCCCCCCCC(=O)OC [methyl undecanoate] , please?
met

* * *

Experiment: molar heat capacity at constant pressure
Details: 290 K; 101.33 kPa; Liquid
measurement-label: molar heat capacity at constant pressure (J/K/mol)
Respond numerically; units are J/K/mol and should not be typed.

Entry CCCCCCCC(=O)OC [methyl octanoate] has what molar heat capacity at constant pressure?
312.81

// next record CCCCCCCCCCCC(=O)OC [methyl dodecanoate]
432.76

Can you check CCCCCCCCC(=O)OC [methyl nonanoate] next?
342.82

Now this one: CCCCCCCCCCCCC(=O)OC [methyl tridecanoate]
463.91

What would you report for CCCCCCCCCC(=O)OC [methyl decanoate] ?
372.12

Moving on to CCCCCCCCCCC(=O)OC [methyl undecanoate]
402.95

* * *

Experiment: molar heat capacity at constant pressure
Conditions: 280 K; 101.33 kPa; Crystal
# molar heat capacity at constant pressure >= 500 J/K/mol gives fulfilled, anything below gives not fulfilled

Below are worked cases with known answers.
compound | label-value
CCCCCCCCCCCCCCCC(=O)OC [methyl hexadecanoate] | not fulfilled
CCCCCCCCCCCCCCCCCCC(=O)OC [methyl nonadecanoate] | fulfilled
CCCCCCCCCCCCCCCCC(=O)OC [methyl heptadecanoate] | not fulfilled
CCCCCCCCCCCCCCCCCCCC(=O)OC [methyl eicosanoate] | fulfilled
CCCCCCCCCCCCCCC(=O)OC [methyl pentadecanoate] | not fulfilled

Please examine the following record next.
Tell me whether molar heat capacity at constant pressure is at least 500 J/K/mol here: CCCCCCCCCCCCCC(=O)OC [methyl tetradecanoate]
not fulfilled

* * *

Experiment: molar heat capacity at constant pressure
Conditions: 270 K; 101.33 kPa; Crystal
Overview of recorded molar heat capacity at constant pressure for various compounds
I only need the number, in J/K/mol, no unit after it.

Sample records with molar heat capacity at constant pressure:
compound | result-units | molar heat capacity at constant pressure
CCCCCCCCCCCCC(=O)OC [methyl tridecanoate] | J/K/mol | 371.61
CCCCCCCCCCCCCCCCC(=O)OC [methyl heptadecanoate] | J/K/mol | 456.93
CCCCCCCCCCCCCCCC(=O)OC [methyl hexadecanoate] | J/K/mol | 423.81
CCCCCCCCCCCCCC(=O)OC [methyl tetradecanoate] | J/K/mol | 388.14
CCCCCCCCCCCCCCCCCCCC(=O)OC [methyl eicosanoate] | J/K/mol | 501.55

For the compound CCCCCCCCCCCCCCCCCC(=O)OC [methyl octadecanoate] , what molar heat capacity at constant pressure is on record?
468.64

Consider next the compound CCCCCCCCCCCC(=O)OC [methyl dodecanoate] in the same way.
392.98

And for CCCCCCCCCCCCCCC(=O)OC [methyl pentadecanoate] ?
403.92

Now the compound CCCCCCCCCCCCCCCCCCC(=O)OC [methyl nonadecanoate]
491.94

* * *

Assay: molar heat capacity at constant pressure
Details: 240 K; 101.33 kPa; Crystal
Reported molar heat capacity at constant pressure is given for each of the following molecules.
Return type: number; implicit unit J/K/mol.

Before answering, review these 5 worked examples.
molecule | molar heat capacity at constant pressure / J/K/mol
CCCCCCCCCCCC(=O)OC [methyl dodecanoate] | 299.95
CCCCCCCCCCCCC(=O)OC [methyl tridecanoate] | 321.07
CCCCCCCCCCCCCCCCC(=O)OC [methyl heptadecanoate] | 399.49
CCCCCCCCCC(=O)OC [methyl decanoate] | 269.17
CCCCCCCCCCCCCCC(=O)OC [methyl pentadecanoate] | 355.9

Could you share which molar heat capacity at constant pressure value was measured for CCCCCCCCCCCCCCCC(=O)OC [methyl hexadecanoate] ?
372.37

Same question, CCCCCCCCCCCCCC(=O)OC [methyl tetradecanoate] this time
334.49

Then CCCCCCCCCCC(=O)OC [methyl undecanoate] ?
291.77

Please give the result for CCCCCCCCCCCCCCCCCCC(=O)OC [methyl nonadecanoate] too.
432.32

Next entry: CCCCCCCCCCCCCCCCCCCC(=O)OC [methyl eicosanoate]
443.77

Now try CCCCCCCCCCCCCCCCCC(=O)OC [methyl octadecanoate] .
413.11

* * *

Details: Crystal
measurement-label: Triple point temperature (K)
# number only, unit K dropped from output

Example entries begin here.
compound | result-units | numeric-value
CCCCCCCCC(=O)OC [methyl nonanoate] | K | 238.72
CCCCCCCCCCCCCCC(=O)OC [methyl pentadecanoate] | K | 292.35
CCCCCCCCCCCCCC(=O)OC [methyl tetradecanoate] | K | 292.14
CCCCCCCC(=O)OC [methyl octanoate] | K | 236.2
CCCCCCCCCCCCCCCCC(=O)OC [methyl heptadecanoate] | K | 303.09

State the recorded Triple point temperature for this entry: CCCCCCCCCCCC(=O)OC [methyl dodecanoate]
278.18

Ok, now CCCCCCCCCCC(=O)OC [methyl undecanoate]
261.8

Same lookup for CCCCCCCCCC(=O)OC [methyl decanoate] , please.
260.33

Same lookup for CCCCCCCCCCCCCCCCCCC(=O)OC [methyl nonadecanoate] , please.
311.49

Next record, please: CCCCCCCCCCCCC(=O)OC [methyl tridecanoate]
279.07

Please answer likewise for CCCCCCCCCCCCCCCCCCCC(=O)OC [methyl eicosanoate]
319.48

Then CCCCCCCCCCCCCCCCCC(=O)OC [methyl octadecanoate] ?
311.84

* * *

Assay: molar heat capacity at constant pressure
Conditions: 270 K; 101.33 kPa; Liquid
measurement-label: molar heat capacity at constant pressure (J/K/mol)
Respond numerically; units are J/K/mol and should not be typed.

compound | molar heat capacity at constant pressure (J/K/mol)
CCCCCCCC(=O)OC [methyl octanoate] | 305.83
CCCCCCCCCCC(=O)OC [methyl undecanoate] | 395.83
CCCCCCCCC(=O)OC [methyl nonanoate] | 335.9

Next compound, molar heat capacity at constant pressure to be filled in.
Param item = CCCCCCCCCC(=O)OC [methyl decanoate] ; retrieve measured molar heat capacity at constant pressure.
361.09

* * *

Below, each entry is listed with its recorded molar heat capacity at constant pressure.
Test: molar heat capacity at constant pressure
Settings: 350 K; 101.33 kPa; Liquid
Report the value in J/K/mol with no unit label.

compound | numeric-value
CCCCCCCCCCC(=O)OC [methyl undecanoate] | 431.52

Reported molar heat capacity at constant pressure, compound CCCCCCCCCCCCCCCCCCCC(=O)OC [methyl eicosanoate] : ____
732.2

Subsequent entry: CCCCCCCCCC(=O)OC [methyl decanoate]
400.2

Could you do the same for CCCCCCCCCCCCCCCCC(=O)OC [methyl heptadecanoate] , please?
622.81

Try this compound too: CCCCCCCCCCCCCCCCCCC(=O)OC [methyl nonadecanoate]
693.78

What do you have for CCCCCCCC(=O)OC [methyl octanoate] ?
336.19

Likewise for CCCCCCCCCCCCCCCC(=O)OC [methyl hexadecanoate] ?
597.66

And for CCCCCCCCCCCCCC(=O)OC [methyl tetradecanoate] ?
528.04

Param item: CCCCCCCCC(=O)OC [methyl nonanoate]
368.16

// repeat for CCCCCCCCCCCC(=O)OC [methyl dodecanoate] and report
467.86

Here is the next compound: CCCCCCCCCCCCCCCCCC(=O)OC [methyl octadecanoate]
664.03
